Experiment: Absorption and emission spectra of dyes in different solvents
Assay type: physicochemical
Parameters: key: Stokes shift in nm
Conditions: Stokes shift to absorption peak 2; solvent Ethanol
attribute_measured: Δλ2

substance_smiles=CCN1/C(=C/C=C/C(=C/C2=[N+](CC)c3ccccc3C2(C)C)NCCO)C(C)(C)c2ccccc21 attribute_measured=Δλ2 observed_value=177
substance_smiles=CCN1/C(=C/C=C/C(=C/C2=[N+](CC)c3ccccc3C2(C)C)N(CCO)CCO)C(C)(C)c2ccccc21 attribute_measured=Δλ2 observed_value=167
substance_smiles=CCN(CC)C(=C\C1=[N+](CC)c2ccccc2C1(C)C)/C=C/C=C1/N(CC)c2ccccc2C1(C)C attribute_measured=Δλ2 observed_value=157
substance_smiles=CCN1/C(=C/C=C/C(=C/C2=[N+](CC)c3ccccc3C2(C)C)NCc2ccccc2)C(C)(C)c2ccccc21 attribute_measured=Δλ2 observed_value=179
substance_smiles=CCN1/C(=C/C=C/C(=C/C2=[N+](CC)c3ccccc3C2(C)C)Nc2ccccc2)C(C)(C)c2ccccc21 attribute_measured=Δλ2 observed_value=206
substance_smiles=CCN1/C(=C/C=C/C(N)=C/C2=[N+](CC)c3ccccc3C2(C)C)C(C)(C)c2ccccc21 attribute_measured=Δλ2 observed_value=182
substance_smiles=CCN1/C(=C/C=C/C(=C/C2=[N+](CC)c3ccccc3C2(C)C)N(Cc2ccccc2)Cc2ccccc2)C(C)(C)c2ccccc21 attribute_measured=Δλ2 observed_value=163
